# assayed-target: Aurora-2 (Homo sapiens)
# Sequence (O14965 1-403): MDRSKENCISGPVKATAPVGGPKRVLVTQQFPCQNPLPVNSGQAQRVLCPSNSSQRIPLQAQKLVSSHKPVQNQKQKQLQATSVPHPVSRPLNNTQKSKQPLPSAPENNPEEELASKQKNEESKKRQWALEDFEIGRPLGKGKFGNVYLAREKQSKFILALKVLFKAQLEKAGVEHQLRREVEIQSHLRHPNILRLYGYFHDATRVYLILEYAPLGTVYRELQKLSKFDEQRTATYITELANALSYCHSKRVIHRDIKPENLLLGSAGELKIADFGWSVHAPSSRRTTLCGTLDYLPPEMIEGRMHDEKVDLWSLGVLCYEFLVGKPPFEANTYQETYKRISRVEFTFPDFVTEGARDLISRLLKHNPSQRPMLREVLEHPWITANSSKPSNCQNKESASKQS
# assay-overview: Inhibition assay of Aurora-2 activity (SPA technology)
# Format: biochemical
# run-parameters: screened according to the methods of the pharmacology section; read-out: IC50values for Aur2 inhibition
Below, each of the compounds is paired with its reported IC50 value.

Recorded IC50 for CC(C)(NC(=O)c1cc2[nH]nc(NC(=O)c3ccco3)c2o1)c1ccccc1 [Compound 28] , please?
< 10 nM

Input Cc1occc1C(=O)Nc1n[nH]c2cc(C(=O)NC(C)(C)c3ccccc3)oc12 [Compound 41]
< 10 nM

Input CC(C)(NC(=O)c1cc2[nH]nc(NC(=O)c3ccccc3)c2o1)c1ccccc1 [Compound 71]
< 10 nM

Input CC(C)(NC(=O)c1cc2[nH]nc(NC(=O)c3ccc(CN4CCCCC4)cc3)c2o1)c1ccccc1F [Compound 74]
< 10 nM
